Form field: cytotoxicity at 10 µM (one value per entry).
# assayOverview: Toxicity liver stage against HepG2, at 10uM
# Type: cell-based
# Design: test concentration 10 uM, cell line HepG2-A16-CD81EGFP
# condition: human, HepG2-A16-CD81EGFP cells; read-out: INHIBITION
Form entry: value (%) — number only.

Please review the entries below; each comes with its answer.
COc1cc(C)nc(N2CCN(C(=O)c3cc(Cl)c[nH]3)CC2)n1; 7.32
Cc1ccc(-c2ncc(C(=O)NCCNC(=O)C(C)C)s2)c(C)c1; -6.53
COc1ccccc1-c1csc(-c2cccc(C(=O)O)c2)n1; 12.3
COc1ccc(C[C@H]2CN(c3cc(OC)ncn3)CC[C@H]2OC)cc1; 54.5
N#Cc1ccc(CN2C(=O)c3ccccc3CS2(=O)=O)cc1; -4.17

Q: Which measured cytotoxicity at 10 µM value corresponds to Cc1cccc(CNCc2c(C(C)C)nn(C)c2N2CCOCC2)n1 ?
A: -9.4

Q: What do you have for CC(=O)CSc1nc2c(cnn2CCO)c(=O)[nH]1 ?
A: -2.22

Q: Same question, Cn1nccc1CN1CCCC(COc2ccccc2F)C1 (centres undefined) this time
A: -9.54

Q: Same again, this time with Nc1nccc(N2CCC(c3cc(Cc4ccccc4)n[nH]3)CC2)n1
A: 38.9

----------
Recorded cytotoxicity at 10 µM, one value per entry.
# assayOverview: Toxicity liver stage against HepG2, at 10uM
# Type: cell-based
# Set-up: test concentration 10 uM, cell line HepG2-A16-CD81EGFP
# condition: human, HepG2-A16-CD81EGFP cells; read-out: INHIBITION
Your answer is read as %, so omit the unit and give the number.

Q: Looking for the measured cytotoxicity at 10 µM of Cc1nc(CN2CCN(Cc3cc4n(n3)CCNC4)CC2)cs1 , can you help?
A: -3.25

----------
# assayOverview: Toxicity liver stage against HepG2, at 10uM
# Type: cell-based
# Design: test concentration 10 uM, cell line HepG2-A16-CD81EGFP
# condition: human, HepG2-A16-CD81EGFP cells; read-out: INHIBITION
observable: cytotoxicity at 10 µM
Express the reported value numerically, then name its unit.

Here's what some known entries look like.
COCCC(=O)N1CCC2(COCc3cnc(N4CCOCC4)nc32)C1 (stereo not drawn); 2.21%
CC(c1ccncc1)N(C)S(C)(=O)=O (stereo not drawn); 1.18%
NC(=O)CC1CCN(C(=O)NCC2(c3ccccc3F)CC2)CC1; 35.2%
COc1cccc(CCC2CCCN(C(=O)c3ccccn3)C2)c1 (stereo not drawn); -0.237%
COc1ccc(OC)c([C@@H]2N[C@H](c3nccs3)Cc3ccsc32)c1; 12.6%
CSCC(=O)N1CCc2nc(C)nc(NCc3ccccc3)c2CC1; 1.69%
O=C(Cn1ccc2ccc(Cl)cc21)/N=c1\[nH]nc(C2CCCO2)s1 (stereo not drawn); 10.8%
CN(C)C(=O)NCc1cc2n(n1)CCN(CC1[C@H]3CNC[C@@H]13)C2 (stereo partly drawn); -27.7%
CCNC(=O)N1CC[C@@H](CC(=O)O)[C@@H](CC2=NCCc3ccccc32)C1; 2.7%
Cc1cccc(CN2CCC3(CCN(c4ccccn4)C3)C2=O)c1 (stereo not drawn); 9.3%

Now, please, on to the next molecule.
Q: Fill in the blank: the reported cytotoxicity at 10 µM of CCC(=O)N1CCc2[nH]cnc2C12CCN(C(=O)c1snnc1C)CC2 is ____.
A: 13.9%
